- TARGET_DESC: Bifunctional dihydrofolate reductase-thymidylate synthase (Plasmodium falciparum K1, UniProt P13922, C59R/I164L/S108N)
- Sequence (P13922 whole entry, looked up, stated change not applied): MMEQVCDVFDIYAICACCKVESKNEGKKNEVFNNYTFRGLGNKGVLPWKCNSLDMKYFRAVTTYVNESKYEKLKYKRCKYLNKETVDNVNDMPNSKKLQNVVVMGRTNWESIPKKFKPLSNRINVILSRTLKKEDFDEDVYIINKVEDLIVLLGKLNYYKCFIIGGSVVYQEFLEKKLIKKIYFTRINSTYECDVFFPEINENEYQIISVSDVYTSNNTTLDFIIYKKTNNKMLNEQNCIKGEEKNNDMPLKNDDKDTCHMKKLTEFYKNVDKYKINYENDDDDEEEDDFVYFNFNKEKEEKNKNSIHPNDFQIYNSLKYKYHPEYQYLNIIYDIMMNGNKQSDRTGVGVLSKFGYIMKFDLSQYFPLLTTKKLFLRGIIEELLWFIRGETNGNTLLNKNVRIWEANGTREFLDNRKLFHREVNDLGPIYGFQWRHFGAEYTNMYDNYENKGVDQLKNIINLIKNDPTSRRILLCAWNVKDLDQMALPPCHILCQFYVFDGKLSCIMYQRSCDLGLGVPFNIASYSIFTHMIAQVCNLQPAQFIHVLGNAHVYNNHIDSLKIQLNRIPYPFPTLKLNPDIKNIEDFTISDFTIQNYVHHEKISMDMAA
- ASSAY_SUMMARY: Inhibitory activity against triple mutant dihydrofolate reductase (C59R S108N I164L DHFR)
Values of Ki strictly less than 300 nM map to MET, and values of at least 300 nM map to NOT MET.

Example entries and their recorded answers appear below.
>>> assigned_category("COc1ccc(Cc2cnc(N)nc2N)cc1")
"NOT MET"
>>> assigned_category("COc1ccc(Cc2cnc(N)nc2N)cc1OC [DIAVERIDINE]")
"NOT MET"
>>> assigned_category("CCCCOc1cc(Cc2cnc(N)nc2N)ccc1OC")
"NOT MET"

**Query** # strict comparison: is reported Ki < 300 nM? input = `CCOc1ccc(Cc2cnc(N)nc2N)cc1OC`
**Result** NOT MET

**Query** Item: `COc1cc(Cc2cnc(N)nc2N)ccc1OCc1cc(OC)c(OC)c(OC)c1`
**Result** MET

**Query** Item: `CCCOc1ccc(Cc2cnc(N)nc2N)cc1`
**Result** NOT MET

**Query** Item: `Nc1ncc(Cc2ccc(OCCCc3ccccc3)cc2)c(N)n1`
**Result** NOT MET

**Query** Item: `CCOc1cc(Cc2cnc(N)nc2N)ccc1OCCCc1ccccc1`
**Result** NOT MET

**Query** Item: `CCCCCOc1ccc(Cc2cnc(N)nc2N)cc1OCC`
**Result** NOT MET

**Query** Item: `COc1cc(Cc2c(C)nc(N)nc2N)ccc1OCc1ccccc1`
**Result** MET

**Query** Item: `CCc1nc(N)nc(N)c1Cc1ccc(OCc2ccccc2)c(OC)c1`
**Result** NOT MET

**Query** Item: `CCCCCOc1cc(Cc2cnc(N)nc2N)ccc1OC`
**Result** MET

**Query** Item: `CCCOc1cc(Cc2c(N)nc(N)nc2CC)ccc1OCc1cc(OC)c(OC)c(OC)c1`
**Result** MET

**Query** Item: `CCCCCCCOc1ccc(Cc2cnc(N)nc2N)cc1`
**Result** NOT MET

**Query** Item: `COc1ccc(Cc2cnc(N)nc2N)cc1OCc1ccccc1`
**Result** NOT MET

**Query** Item: `COc1cc(Cc2cnc(N)nc2N)ccc1OCCCc1ccccc1`
**Result** NOT MET

**Query** Item: `CCOc1cc(Cc2cnc(N)nc2N)ccc1OCCCOc1ccccc1`
**Result** MET

**Query** Item: `CCCOc1cc(Cc2cnc(N)nc2N)ccc1OC`
**Result** MET

**Query** Item: `CCCCCOc1ccc(Cc2cnc(N)nc2N)cc1`
**Result** NOT MET

**Query** Item: `COc1cc(Cc2cnc(N)nc2N)ccc1OCCCOCCCOc1ccccc1`
**Result** NOT MET

**Query** Item: `Nc1ncc(Cc2ccc(OCCCOCCCOc3ccccc3)cc2)c(N)n1`
**Result** MET
